- systemName: Atg17–Atg31C (residues 174–196) complex (S. cerevisiae (budding yeast), UniProt Q06410 1-417; Q12421 174-196)
- Sequence (Q06410 whole entry, chain 1 of 2, the tested form may be a part): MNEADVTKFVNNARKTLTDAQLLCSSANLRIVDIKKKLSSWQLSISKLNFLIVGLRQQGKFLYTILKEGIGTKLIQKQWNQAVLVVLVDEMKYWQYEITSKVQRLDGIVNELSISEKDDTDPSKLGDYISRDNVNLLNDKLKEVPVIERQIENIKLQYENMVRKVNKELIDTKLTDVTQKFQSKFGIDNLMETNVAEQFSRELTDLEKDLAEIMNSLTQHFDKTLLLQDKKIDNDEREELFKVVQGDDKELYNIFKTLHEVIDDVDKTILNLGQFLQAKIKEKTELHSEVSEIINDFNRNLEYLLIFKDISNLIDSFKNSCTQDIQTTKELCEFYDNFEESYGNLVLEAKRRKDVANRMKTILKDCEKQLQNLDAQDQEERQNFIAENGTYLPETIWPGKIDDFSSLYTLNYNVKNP
- Sequence (Q12421 174-196, chain 2 of 2): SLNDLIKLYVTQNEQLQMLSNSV
- assayProcedure: ITC
measure: pKd
# log scale: pKd equals minus log10 of the concentration in mol/L

Return pKd for the following binder: TVQNRLELFSRRLSQLGLASD (domain or fragment, S. cerevisiae (budding yeast), UniProt P38316 42-62, looked up) [Atg12^17BH–mGFP, wild type (Atg12 residues 42–62 with C-terminal mGFP)]
5.42
